Values were extracted from the supplement of paper PMC11208160.

assay: recombinant UMI read abundance after kanamycin selection (control-corrected) (log10(CPM+1)); higher = more efficient recombination; extreme values may be limits of the assay; sequences stand for … in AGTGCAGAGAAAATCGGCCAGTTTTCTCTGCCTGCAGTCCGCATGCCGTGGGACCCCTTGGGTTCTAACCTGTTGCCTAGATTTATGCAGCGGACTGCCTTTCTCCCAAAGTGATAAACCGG…AGGTTGGTTTCACT; site = the 11-nt donor;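 further: IS621 bridge recombinase in Escherichia coli cells against a fixed T5 target plasmid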
Quick rule for you: recombinant UMI read abundance (log10) at 0.01 or higher means Y, lower means N.

>>> label_class("ATAGGACCATGGACCGGTTTTCCCGGTAATCCGTATTTGCT (site ATAGGACCTAG)")
"N"
>>> label_class("CGGACTGCATGGACCGGTTTTCCCGGTAATCCGTATTTGTT (site CGGACTGCTAA)")
"Y"
>>> label_class("CATGGAACATGGACCGGTTTTCCCGGTAATCCGTATTTGTT (site CTTGGAACTAA)")
"N"
>>> label_class("CTCCCTACATGGACCGGTTTTCCCGGTAATCCGTATTTGAG (site TTCCCTACTCT)")
"N"
>>> label_class("GTTGTCGCATGGACCGGTTTTCCCGGTAATCCGTATTTGCG (site GTCGTCGCTCG)")
"N"
>>> label_class("GGTACGTCATGGACCGGTTTTCCCGGTAATCCGTATTTGTG (site GGTACGTCTAA)")
"Y"
>>> label_class("AGGGGTTCATGGACCGGTTTTCCCGGTAATCCGTATTTGTC (site AGGGGTTCTGA)")
"Y"
>>> label_class("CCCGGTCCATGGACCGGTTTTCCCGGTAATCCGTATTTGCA (site CCCAGTCCTTG)")
"N"
>>> label_class("ATCTATCCATGGACCGGTTTTCCCGGTAATCCGTATTTGAC (site ATCTATTCTGT)")
"N"
>>> label_class("GTATGCACATGGACCGGTTTTCCCGGTAATCCGTATTTGAA (site GTATGCACTTA)")
"Y"
>>> label_class("GTAATAACATGGACCGGTTTTCCCGGTAATCCGTATTTGGC (site GTAATAACTGC)")
"Y"
>>> label_class("GTTGAGACATGGACCGGTTTTCCCGGTAATCCGTATTTGGT (site CTTGAGACTAC)")
"Y"
>>> label_class("GCAGATTCATGGACCGGTTTTCCCGGTAATCCGTATTTGTT (site GTAGATTCTAA)")
"Y"
>>> label_class("GGCAATGCATGGACCGGTTTTCCCGGTAATCCGTATTTGAA (site GGCAATCCTTT)")
"N"
>>> label_class("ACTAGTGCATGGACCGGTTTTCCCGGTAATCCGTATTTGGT (site ACTAGTGCTTC)")
"Y"
>>> label_class("AGGCCGGCATGGACCGGTTTTCCCGGTAATCCGTATTTGGC (site AGGCCGGCTGC)")
"Y"
>>> label_class("GACTAACCATGGACCGGTTTTCCCGGTAATCCGTATTTGGT (site GACTAACCTAC)")
"N"
>>> label_class("CTATTATCATGGACCGGTTTTCCCGGTAATCCGTATTTGAC (site CTATTATCTGT)")
"Y"
>>> label_class("AGCCTCTCATGGACCGGTTTTCCCGGTAATCCGTATTTGAC (site AGCCTTTCTGT)")
"N"
>>> label_class("GACGACGCATGGACCGGTTTTCCCGGTAATCCGTATTTGTC (site GACGACGCTGA)")
"Y"
>>> label_class("AAGCAAGCATGGACCGGTTTTCCCGGTAATCCGTATTTGGG (site AAGCATGCTCC)")
"Y"
>>> label_class("TGCTAGGCATGGACCGGTTTTCCCGGTAATCCGTATTTGAT (site TGCTAGGCTAG)")
"N"
>>> label_class("CAGAATCCATGGACCGGTTTTCCCGGTAATCCGTATTTGTC (site CAGAATCCTGA)")
"Y"
>>> label_class("GATCTCACATGGACCGGTTTTCCCGGTAATCCGTATTTGAT (site GAACTCACTAT)")
"Y"
>>> label_class("CACTTGGCATGGACCGGTTTTCCCGGTAATCCGTATTTGGA (site CACTTGACTTC)")
"Y"
>>> label_class("TAACAATCATGGACCGGTTTTCCCGGTAATCCGTATTTGTC (site TAACAATCTGA)")
"Y"
>>> label_class("CGAGTCACATGGACCGGTTTTCCCGGTAATCCGTATTTGGG (site CAAGTCACTCC)")
"Y"
>>> label_class("AGTTCTGCATGGACCGGTTTTCCCGGTAATCCGTATTTGTT (site AGTTCTGCTAA)")
"Y"
>>> label_class("CGTTAGGCATGGACCGGTTTTCCCGGTAATCCGTATTTGAG (site CGTTAGACTCT)")
"Y"
>>> label_class("AAGCAAGCATGGACCGGTTTTCCCGGTAATCCGTATTTGGG (site AAGCAAGCTCC)")
"Y"
>>> label_class("CTAGGACCATGGACCGGTTTTCCCGGTAATCCGTATTTGGG (site CTAGGACCTCC)")
"N"
>>> label_class("AGCCAAGCATGGACCGGTTTTCCCGGTAATCCGTATTTGAG (site AACCAAGCTCT)")
"Y"
>>> label_class("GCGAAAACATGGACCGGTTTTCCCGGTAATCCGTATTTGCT (site GCGAAAACTAG)")
"Y"
>>> label_class("CCCCGGGCATGGACCGGTTTTCCCGGTAATCCGTATTTGGG (site CCCCGGGCTCC)")
"Y"
>>> label_class("ATAAGGCCATGGACCGGTTTTCCCGGTAATCCGTATTTGCC (site ATAAGGCCTGT)")
"N"
>>> label_class("TACGGCCCATGGACCGGTTTTCCCGGTAATCCGTATTTGTT (site AACGGCCCTAA)")
"Y"
